Biological target: HIV-1 pseudovirus 263-8 (HIV-1)
Assay: cell-based or functional assay
endpointLabel: IC80 (neutralization in TZM.bl cells) (µg/mL)
Lab book: enter the figure in µg/mL, no units written.

What value of IC80 (neutralization in TZM.bl cells) has been reported for the following binder? MS-83 (antibody, V domains shown) VH: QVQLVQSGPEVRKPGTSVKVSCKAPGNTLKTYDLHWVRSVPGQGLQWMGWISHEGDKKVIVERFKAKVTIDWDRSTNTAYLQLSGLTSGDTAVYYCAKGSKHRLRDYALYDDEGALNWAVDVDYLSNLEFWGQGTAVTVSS VL: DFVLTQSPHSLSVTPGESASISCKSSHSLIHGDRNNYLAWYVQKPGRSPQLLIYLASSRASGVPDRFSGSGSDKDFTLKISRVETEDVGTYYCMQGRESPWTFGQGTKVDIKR
0.05

Which IC80 (neutralization in TZM.bl cells) is listed for MS-92 (antibody, V domains shown) VH: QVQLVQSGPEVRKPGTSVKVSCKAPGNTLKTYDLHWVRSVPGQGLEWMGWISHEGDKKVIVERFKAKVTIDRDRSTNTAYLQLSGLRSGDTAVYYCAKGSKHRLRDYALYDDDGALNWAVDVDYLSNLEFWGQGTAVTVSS VL: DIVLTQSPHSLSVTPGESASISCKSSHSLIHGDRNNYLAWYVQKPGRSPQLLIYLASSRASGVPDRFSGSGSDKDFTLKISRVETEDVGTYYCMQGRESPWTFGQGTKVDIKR ?
0.208

Give its IC80 (neutralization in TZM.bl cells) value. Item: MS-87 (antibody, V domains shown) VH: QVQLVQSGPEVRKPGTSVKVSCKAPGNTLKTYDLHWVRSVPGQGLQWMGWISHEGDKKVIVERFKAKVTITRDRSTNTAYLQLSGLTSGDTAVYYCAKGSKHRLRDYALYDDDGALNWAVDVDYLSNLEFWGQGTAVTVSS VL: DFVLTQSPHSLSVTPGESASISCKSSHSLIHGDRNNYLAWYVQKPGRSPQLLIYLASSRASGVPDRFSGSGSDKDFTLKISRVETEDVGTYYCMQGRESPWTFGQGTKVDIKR
0.361

IC80 (neutralization in TZM.bl cells) lookup needed for MS-74 (antibody, V domains shown) VH: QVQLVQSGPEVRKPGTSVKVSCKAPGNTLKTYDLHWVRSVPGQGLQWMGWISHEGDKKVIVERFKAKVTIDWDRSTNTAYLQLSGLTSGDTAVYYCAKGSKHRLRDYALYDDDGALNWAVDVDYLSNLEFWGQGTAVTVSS VL: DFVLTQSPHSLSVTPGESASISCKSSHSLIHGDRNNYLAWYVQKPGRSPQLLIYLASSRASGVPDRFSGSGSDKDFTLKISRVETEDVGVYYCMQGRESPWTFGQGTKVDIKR , thanks.
0.037

Name the recorded IC80 (neutralization in TZM.bl cells) for MS-85 (antibody, V domains shown) VH: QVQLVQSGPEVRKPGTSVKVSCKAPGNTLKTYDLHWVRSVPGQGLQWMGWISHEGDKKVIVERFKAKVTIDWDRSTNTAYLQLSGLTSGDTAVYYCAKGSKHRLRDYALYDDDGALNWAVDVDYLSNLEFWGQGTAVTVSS VL: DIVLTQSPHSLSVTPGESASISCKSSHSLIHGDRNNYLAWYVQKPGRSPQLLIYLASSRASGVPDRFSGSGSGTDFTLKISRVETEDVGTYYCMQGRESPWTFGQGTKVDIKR .
0.043

Requested field: IC80 (neutralization in TZM.bl cells). Item: MS-78 (antibody, V domains shown) VH: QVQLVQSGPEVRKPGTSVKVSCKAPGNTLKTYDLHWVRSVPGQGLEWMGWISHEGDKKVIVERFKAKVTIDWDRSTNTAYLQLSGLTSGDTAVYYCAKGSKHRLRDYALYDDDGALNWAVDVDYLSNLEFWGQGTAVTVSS VL: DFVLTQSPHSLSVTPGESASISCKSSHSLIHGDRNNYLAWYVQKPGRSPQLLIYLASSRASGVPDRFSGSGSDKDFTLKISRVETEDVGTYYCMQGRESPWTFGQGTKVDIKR
0.053

Name the recorded IC80 (neutralization in TZM.bl cells) for MS-75 (antibody, V domains shown) VH: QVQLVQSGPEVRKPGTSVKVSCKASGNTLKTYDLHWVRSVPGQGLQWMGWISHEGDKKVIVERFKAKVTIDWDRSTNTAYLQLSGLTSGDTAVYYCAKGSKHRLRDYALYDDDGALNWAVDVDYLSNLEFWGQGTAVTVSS VL: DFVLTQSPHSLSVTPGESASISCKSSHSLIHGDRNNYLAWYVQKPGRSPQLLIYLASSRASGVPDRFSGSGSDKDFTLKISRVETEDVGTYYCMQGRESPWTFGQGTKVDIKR .
0.086

IC80 (neutralization in TZM.bl cells) for MS-91 (antibody, V domains shown) VH: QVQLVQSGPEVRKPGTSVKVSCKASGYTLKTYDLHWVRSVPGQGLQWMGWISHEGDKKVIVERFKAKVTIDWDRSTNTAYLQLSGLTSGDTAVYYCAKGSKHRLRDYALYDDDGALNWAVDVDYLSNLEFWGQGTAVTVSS VL: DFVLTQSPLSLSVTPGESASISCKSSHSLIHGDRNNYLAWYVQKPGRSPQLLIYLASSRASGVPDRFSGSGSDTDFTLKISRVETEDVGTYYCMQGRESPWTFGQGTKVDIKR ?
0.075

Which measured IC80 (neutralization in TZM.bl cells) value corresponds to MS-70 (antibody, V domains shown) VH: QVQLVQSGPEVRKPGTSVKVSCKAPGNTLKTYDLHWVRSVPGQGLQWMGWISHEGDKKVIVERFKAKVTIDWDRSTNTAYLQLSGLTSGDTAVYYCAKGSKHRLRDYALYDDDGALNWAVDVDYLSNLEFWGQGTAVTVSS VL: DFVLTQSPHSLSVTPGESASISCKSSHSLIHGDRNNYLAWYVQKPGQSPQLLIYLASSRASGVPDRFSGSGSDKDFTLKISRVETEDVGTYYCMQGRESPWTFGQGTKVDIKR ?
0.047
